Measured EC50 by item
# test system: UniProt:P21453
# experiment summary: CNG cAMP Assay (Assay 1)
# Assay type: cell-based
# Parameters: host or cells: HEK293 cells expressing the CNG channel
# cond: read-out: Assay 1 EC50
# Sequence (P21453 whole entry): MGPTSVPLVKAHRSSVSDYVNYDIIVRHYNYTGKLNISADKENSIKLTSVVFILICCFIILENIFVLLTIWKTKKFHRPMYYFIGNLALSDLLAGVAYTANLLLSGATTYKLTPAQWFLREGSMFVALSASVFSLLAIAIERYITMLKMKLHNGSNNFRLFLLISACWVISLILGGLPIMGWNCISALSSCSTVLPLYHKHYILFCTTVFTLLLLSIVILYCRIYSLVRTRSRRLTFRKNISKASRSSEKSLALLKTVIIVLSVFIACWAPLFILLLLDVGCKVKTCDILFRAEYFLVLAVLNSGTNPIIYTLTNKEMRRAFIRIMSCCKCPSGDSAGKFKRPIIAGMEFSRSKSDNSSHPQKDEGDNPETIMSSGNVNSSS

1. Cc1cc(-c2noc(-c3cn4cc(C(F)(F)F)cc(Cl)c4n3)n2)cc(C)c1O[C@@H](C)CO    ≤ 100 nM
2. Cc1cc(CC(C)C(=O)O)ccc1-c1noc(-c2cn3cc(C(F)(F)F)cc(Cl)c3n2)n1 (centres unmarked)    ≤ 100 nM
3. OC[C@@H](O)COc1cc(Cl)c(-c2noc(-c3cn4cc(C(F)(F)F)cc(Cl)c4n3)n2)cc1Cl    ≤ 100 nM

Request: Recorded EC50 for `Fc1ccc(-c2noc(-c3cn4cc(C(F)(F)F)cc(Br)c4n3)n2)c(Cl)c1` with UniProt:P21453, please?
Result: 100 to 500 nM

Request: Try this compound next: `O=C(O)CCc1c(Cl)cc(-c2nc(-c3cn4cc(C(F)(F)F)cc(Cl)c4n3)no2)cc1Cl`
Result: ≤ 100 nM

Request: Field entry: `Cc1cc(-c2noc(-c3cn4cc(C(F)(F)F)cc(Cl)c4n3)n2)ccc1CCC(=O)O`
Result: ≤ 100 nM

Request: // query: `Fc1ccc(-c2noc(-c3cn4cc(C(F)(F)F)cc(Cl)c4n3)n2)c(Br)c1`
Result: ≤ 100 nM

Request: Note, next up: `N#Cc1cc(C(F)(F)F)cn2cc(-c3nc(-c4ccc(F)cc4Cl)no3)nc12`
Result: 100 to 500 nM

====

# test system: UniProtKB P21453
# experiment summary: DELFIA GTP-Eu Binding Assay (Assay 3b)
# Assay type: biochemical
# Parameters: purchased Lonza; host or cells: CHO cell membranes
# cond: read-out: Assay 3b EC50
assay metric: EC50

Request: Need EC50, item `C[C@@H](CO)Oc1cc(Cl)c(-c2noc(-c3cn4cc(C(F)(F)F)cc(Cl)c4n3)n2)cc1F`
Result: 100 to 500 nM

Request: // repeat for `COc1cc(Cl)c2nc(-c3nc(-c4cc(F)c(CCC(=O)O)cc4Cl)no3)cn2c1` and report
Result: 100 to 500 nM

Request: What do you get for `O=C(O)CCc1cc(Cl)c(-c2noc(-c3cn4cc(C(F)(F)F)cc(Cl)c4n3)n2)cc1Cl` ?
Result: ≤ 100 nM

Request: Try this compound too: `O=C(O)CCc1ccc(-c2noc(-c3cn4cc(C(F)(F)F)cc(Cl)c4n3)n2)c(Cl)c1`
Result: 500 to 1000 nM

Request: Subsequent entry: O=C(O)C1CC1c1cc(Cl)c(-c2noc(-c3cn4cc(C(F)(F)F)cc(Cl)c4n3)n2)cc1F (stereo not shown)
Result: 100 to 500 nM

====

# test system: UniProt:P21453
# experiment summary: DELFIA GTP-Eu Binding Assay (Assay 3b)
# Format: biochemical
# Design: purchased Lonza; host or cells: CHO cell membranes
# cond: relative EC50 was measured (footnote 1), read-out: Assay 3b Relative EC50
pEC50: −log10 of the molar value.
# pEC50 listing for each entry below

Solved cases below.
1. O=C(O)C1CC1c1ccc(-c2noc(-c3cn4cc(C(F)(F)F)cc(Cl)c4n3)n2)c(Cl)c1 (stereo not shown)    5.30 to 6.00
2. Cc1cc(C2CC2C(=O)O)ccc1-c1noc(-c2cn3cc(C(F)(F)F)cc(Cl)c3n2)n1 (stereo not shown)    5.30 to 6.00
3. O=C(O)CCc1ccc(-c2noc(-c3cn4cc(C(F)(F)F)cc(Cl)c4n3)n2)cc1F    6.00 to 6.30
4. O=C(O)CCc1ccc(-c2noc(-c3cn4cc(C(F)(F)F)cc(Cl)c4n3)n2)cc1Cl    6.30 to 7.00

Request: I have this compound here, `O=C(O)CCc1ccc(-c2nnc(-c3cn4cc(C(F)(F)F)cc(Cl)c4n3)o2)c(Cl)c1` , and I need its recorded pEC50.
Result: 5.30 to 6.00

Request: Please give the result for `O=C(O)C1CN(Cc2ccc(-c3noc(-c4cn5cc(C(F)(F)F)cc(Cl)c5n4)n3)c(Cl)c2)C1` too.
Result: 5.30 to 6.00

Request: Do the same for `O=C(O)CCc1cc(F)c(-c2noc(-c3cn4cc(C(F)(F)F)cc(Cl)c4n3)n2)c(F)c1` please
Result: 5.30 to 6.00

====

Reported pEC50 values follow for various molecules
# test system: hS1P1R (hEdg1) (Homo sapiens, UniProt P21453)
# Sequence (P21453 whole entry): as above
# experiment summary: hS1P1R GTPγS Binding Assay (Assay 3a)
pEC50: −log10 of the molar value.

The examples below pair each entry with its known result.
1. NCCOc1ccc(-c2nnc(-c3cn4cc(C(F)(F)F)cc(Cl)c4n3)s2)c(Cl)c1 [Example 244]    6.30 to 7.00
2. O=C(O)CCc1ccc(-c2nnc(-c3cn4cc(C(F)(F)F)cc(Cl)c4n3)s2)c(Cl)c1 [Example 283]    6.30 to 7.00
3. OC(CF)COc1cc(Cl)c(-c2noc(-c3cn4cc(C(F)(F)F)cc(Cl)c4n3)n2)cc1Cl (stereo not drawn) [Example 118]    ≥ 7.00
4. O=C(O)CCc1cc(Cl)c(-c2noc(-c3cn4cc(I)cc(Cl)c4n3)n2)cc1F [Example 302]    6.30 to 7.00
5. CC(C)(O)COc1cc(Cl)c(-c2noc(-c3cn4cc(C(F)(F)F)cc(Cl)c4n3)n2)cc1Cl [Example 166]    6.30 to 7.00
6. OCC(O)COc1cc(Cl)c(-c2nc(-c3cn4cc(C(F)(F)F)cc(Cl)c4n3)no2)cc1Cl (stereo not drawn) [Entry 50]    ≥ 7.00

Request: // query pEC50 value for entry OCC(O)COc1cc(Cl)c(-c2noc(-c3cn4cc(C(F)(F)F)cc(Br)c4n3)n2)cc1Cl (stereo not drawn) [Example 212]
Result: ≥ 7.00

Request: Next molecule up: OCCOc1cc(Cl)c(-c2noc(-c3cn4cc(C(F)(F)F)cc(Cl)c4n3)n2)cc1Cl [Example 288]
Result: ≥ 7.00

Request: Next up: CC(C)Oc1cc(Cl)c2nc(-c3nc(-c4cc(F)c(CCC(=O)O)cc4Cl)no3)cn2c1 [Example 301]
Result: 6.30 to 7.00

Request: Same read-out for C[C@@H](O)COc1cc(Cl)c(-c2noc(-c3cn4cc(C(F)(F)F)cc(Cl)c4n3)n2)cc1Cl [Example 295] ?
Result: ≥ 7.00

Request: One more molecule: CC(CO)Oc1cc(Cl)c(-c2noc(-c3cn4cc(C(F)(F)F)cc(Cl)c4n3)n2)cc1F (stereo not drawn) [Example 259]
Result: ≥ 7.00

====

# test system: S1P1 (Homo sapiens)
# experiment summary: Tango β-arrestin Recruitment Assay in U2OS cells (Assay 2b)
# Format: cell-based
# Parameters: linker with TEV protease (N1a) cleavage site (C)
# cond: Tango β-arrestin Recruitment Assay, read-out: Assay 2b EC50
# Experimental: For the Tango™ β-arrestin recruitment assay, the cytoplasmic C-terminus of S1P1 is tethered to the tTA transcriptional activator with a linker that contains a cleavage site for the N1a protease from tobacco etch virus (TEV protease). The C-terminus of the human β-arrestin2 protein is fused to TEV protease. […] Assay 1 is the CNG cAMP Assay as described in Biological Example 1. […] EC50's were measured unless otherwise noted. […]
# Sequence (P21453 whole entry): as above
# Sequence (P32121 whole entry partner): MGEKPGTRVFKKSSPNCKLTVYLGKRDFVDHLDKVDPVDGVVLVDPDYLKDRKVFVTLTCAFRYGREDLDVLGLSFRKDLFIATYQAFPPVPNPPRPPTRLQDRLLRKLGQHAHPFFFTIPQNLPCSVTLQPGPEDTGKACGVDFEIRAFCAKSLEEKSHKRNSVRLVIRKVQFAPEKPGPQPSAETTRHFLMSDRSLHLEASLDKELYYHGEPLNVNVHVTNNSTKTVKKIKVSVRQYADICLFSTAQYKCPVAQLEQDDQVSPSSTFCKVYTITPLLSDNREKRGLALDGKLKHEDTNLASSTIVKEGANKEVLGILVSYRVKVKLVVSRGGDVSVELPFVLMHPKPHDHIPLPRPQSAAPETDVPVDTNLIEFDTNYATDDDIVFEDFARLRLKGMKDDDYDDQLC
assay metric: EC50

Example entries and their recorded answers appear below.
1) OCC(O)COc1cc(Cl)c(-c2noc(-c3cn4cc(C(F)(F)F)cc(Cl)c4n3)n2)cc1Cl (stereo not shown) [Example 208]    ≤ 100 nM
2) OC[C@H](O)COc1cc(Cl)c(-c2noc(-c3cn4cc(C(F)(F)F)cc(Br)c4n3)n2)cc1Cl [Entry 33]    ≤ 100 nM
3) OC(COc1cc(Cl)c(-c2noc(-c3cn4cc(C(F)(F)F)cc(Cl)c4n3)n2)cc1Cl)C(F)(F)F (stereo not shown) [Entry 77]    ≤ 100 nM

Request: Record request: EC50 value, item OCCOc1cc(Cl)c(-c2noc(-c3cn4cc(C(F)(F)F)cc(Cl)c4n3)n2)cc1Cl [Example 288]
Result: ≤ 100 nM

====

Here the recorded pEC50 is given for each entry.
# test system: S1P1 (Homo sapiens)
# experiment summary: DELFIA GTP-Eu Binding Assay (Assay 3b)
# Format: biochemical
# Set-up: purchased Lonza; host or cells: CHO cell membranes
# cond: footnote 1: Relative EC50 was measured, read-out: Assay 3b Relative EC50
pEC50: −log10 of the molar value.

1) O=C(O)CC(O)c1ccc(-c2noc(-c3cn4cc(C(F)(F)F)cc(Cl)c4n3)n2)c(Cl)c1 (stereo not drawn) [Example 139]    6.30 to 7.00
2) Cc1cc(C(C)CC(=O)O)ccc1-c1noc(-c2cn3cc(C(F)(F)F)cc(Br)c3n2)n1 (stereo not drawn) [Example 153]    6.00 to 6.30

Pending molecule:
Request: Item under review: CC(C)Cc1cc(Cl)c2nc(-c3nc(-c4cc(F)c(CCC(=O)O)cc4Cl)no3)cn2c1 [Example 149] . Reported pEC50?
Result: ≥ 7.00
